# Tested on: U2OS
# Assay protocol: Multiplex assay against U2OS
# Format: toxicity, cell-based
# Test context: human, 48 h, 10 µM, compound concentration 10 uM, replicate 2
Assay readout: Population Pyknosed Nuclei (%)

1) Cc1ccc(OCC(O)C(C)NC(C)C)c2c1CCC2.Cl (stereo not given) | 11
2) CN1CCN(c2ccc(Nc3c4ccccc4nc4ccccc34)cc2)CC1.Cl.Cl.O | 4
3) CN1CCN2c3ccccc3Cc3ccccc3C2C1.Cl (stereo not given) [MIANSERIN HYDROCHLORIDE] | 11
4) Cc1nn(C)c2nc(NNC(=O)Nc3cc(Cl)nc(Cl)c3)cc(C(C)C)c12 | 27
5) COc1cc(Nc2ncc3c(n2)-c2ccc(Cl)cc2C(c2c(F)cccc2OC)=NC3)ccc1C(=O)O [ALISERTIB] | 13

---

# System: U2OS
# Assay protocol: Multiplex assay against U2OS
# Type: toxicity, cell-based
# Test context: human, 48 h, 1 µM, compound concentration 1 uM, replicate 1
Label y when Population Mitotic Cells (%) is at or above 20%; anything below gets n.

1) CCc1nn2c(C)cc(C)nc2c1Cc1ccc(-c2nnc(C3CCNCC3)o2)cc1 | n
2) CC(C)(C)c1ccc(CSc2cnn(C(C)(C)C)c(=O)c2Cl)cc1 [PYRIDABEN] | y
3) CC(C)C[C@H](CO)Nc1nc(S[C@@H](C)c2ccccc2)nc2nc(N)sc12 [AZD-8797] | n
4) CSc1nc(NC2CCCC2)c([N+](=O)[O-])c(NC2CCCC2)n1 [GS-39783] | n
5) COC(c1ccccc1)(c1ccccc1)[C@H](Oc1nc(C)cc(C)n1)C(=O)O [AMBRISENTAN] | n
6) CN1CCN(c2ccc(Nc3c4ccccc4nc4ccccc34)cc2)CC1.Cl.Cl.O | n
7) C[C@H](NC(=O)CNC(=O)c1cccc(Cl)c1)c1ccccc1 | y
8) COc1c(Nc2ccc(S(C)(=O)=O)nc2C)ncnc1OC1CCN(C(=O)OC(C)C)CC1 [ADP-597] | n
9) Cc1cc(O)c(-c2ccc([C@@H](C)CN(C)C)cc2)c2c1[nH]c(=O)c1sccc12 | n

---

# System: HEK-293T
# Assay protocol: Multiplex assay against HEK293T
# Format: toxicity, cell-based
# Test context: human, 24 h, 1 µM, compound concentration 1 uM, replicate 2
Assay readout: Population Mitotic Cells (%)

1. COc1ccc2c(c1OCc1ccccc1)C[C@@H](C(=O)O)N(C(=O)C(c1ccccc1)c1ccccc1)C2 | 80
2. COc1cc2nc(N3CCN(C(=O)c4ccco4)CC3)nc(N)c2cc1OC.Cl [PRAZOSIN HYDROCHLORIDE] | 48
3. Cc1sc2c(c1C)C(c1ccc(Cl)cc1)=N[C@H](CC(=O)OC(C)(C)C)c1nnc(C)n1-2 | 67
4. CSc1nc(NC2CCCC2)c([N+](=O)[O-])c(NC2CCCC2)n1 | 61

---

# Tested on: U2OS
# Assay protocol: Multiplex assay against U2OS
# Format: toxicity, cell-based
# Test context: human, 24 h, 1 µM, compound concentration 1 uM, replicate 2
Label YES when Population Membrane Permeable-Phenotype (%) is at or above 7%; anything below gets NO.

1. COc1cc2nc(N3CCN(C(=O)c4ccco4)CC3)nc(N)c2cc1OC.Cl [PRAZOSIN HYDROCHLORIDE] | YES
2. Nc1nc(CC(=O)Nc2ccc(CCNC[C@H](O)c3ccccc3)cc2)cs1 | YES
3. CN1CCN(c2ccc(Nc3c4ccccc4nc4ccccc34)cc2)CC1.Cl.Cl.O | NO
4. COc1ccc2[nH]c(I)c(CCNC(C)=O)c2c1 | YES

---

# Tested on: Fibroblast
# Assay protocol: Multiplex assay against human fibroblast
# Type: toxicity, cell-based
# Test context: 12 h, 1 µM, compound concentration 1 uM, replicate 1
Listing of recorded Population Fragmented Nuclei (%) by entry.
Assay readout: Population Fragmented Nuclei (%)

1. CN1CCN(c2ccc(Nc3c4ccccc4nc4ccccc34)cc2)CC1.Cl.Cl.O | 15
2. O=C(O)CCC/C=C\CC1C(O)CC(O)C1/C=C/C(O)COc1cccc(Cl)c1 (stereo not drawn) [CLOPROSTENOL] | 15
3. COc1c(Nc2ccc(S(C)(=O)=O)nc2C)ncnc1OC1CCN(C(=O)OC(C)C)CC1 [ADP-597] | 14
4. Cc1cc(NC(=O)NCCN2CCC(O)(Cc3ccccc3)CC2)c2ccccc2n1 [PALOSURAN] | 10
5. Cc1cc(O)c(-c2ccc([C@@H](C)CN(C)C)cc2)c2c1[nH]c(=O)c1sccc12 | 12
6. COc1cc(C(=O)N2CC[C@@H](O)[C@@H](N)C2)cc2nc(-c3cc4ccccc4n3CC3CC3)n(C)c12.Cl | 25
7. Cc1cc(-c2ccc3c(c2)CC[C@H]3N2CC3(CCN(C(=O)Cc4cn5cc(C)sc5n4)CC3)C2)ncn1 [PF-5190457] | 16
8. CCc1nn2c(C)cc(C)nc2c1Cc1ccc(-c2nnc(C3CCNCC3)o2)cc1 | 17

---

# Test system: Fibroblast
# Assay protocol: Multiplex assay against human fibroblast
# Assay type: toxicity, cell-based
# Test context: 12 h, 10 µM, compound concentration 10 uM, replicate 1
Non-standard residues stand in square brackets, D forms with d. Residues, ends and D or L forms follow the SMILES beside them.
Assay readout: Population Healthy Nuclei (%)

1. CC(C)(O)C(=O)N1CCN(c2ccc(C(F)(F)F)c(C3=C(c4c[nH]c5ccccc45)C(=O)NC3=O)c2)CC1 | 50%
2. CC(C)C[C@H](CO)Nc1nc(S[C@@H](C)c2ccccc2)nc2nc(N)sc12 | 64%
3. COc1cc(Nc2ncc3c(n2)-c2ccc(Cl)cc2C(c2c(F)cccc2OC)=NC3)ccc1C(=O)O | 47%
4. CN(C)C/C=C/C(=O)Nc1ccc(C(=O)N2CCCC(Nc3ncc(Cl)c(-c4c[nH]c5ccccc45)n3)C2)cc1 (stereo not drawn) | 53%
5. Cc1cc(=O)n(C)c2cc(N3C(=O)CC[C@H](NS(=O)(=O)CC(C)C)[C@H]3c3ccc(Cl)cc3)ccc12 | 40%
6. N[C@](CC1c2ccccc2Oc2ccccc21)(C(=O)O)[C@H]1C[C@@H]1C(=O)O | 66%
7. CCc1nn2c(C)cc(C)nc2c1Cc1ccc(-c2nnc(C3CCNCC3)o2)cc1 | 62%
8. C=CCN1C[C@H](C(=O)N(CCCN(C)C)C(=O)NCC)C[C@@H]2c3cccc4[nH]cc(c34)C[C@H]21 | 64%
9. CCn1c(-c2nc3cc(C(=O)N4CCCC(N)C4)ccc3n2C)cc2ccccc21.Cl (stereo not drawn) | 63%
10. Cc1sc2c(c1C)C(c1ccc(Cl)cc1)=N[C@H](CC(=O)OC(C)(C)C)c1nnc(C)n1-2 | 55%
11. O=C(Nc1cc(-c2ccccc2)nn1-c1ccccc1F)c1ccc([N+](=O)[O-])cc1 | 66%
12. CCC(=O)OCC(=O)[C@@]1(OC(=O)CC)[C@@H](C)C[C@H]2[C@@H]3CCC4=CC(=O)C=C[C@]4(C)[C@@]3(Cl)[C@@H](O)C[C@@]21C [BECLOMETHASONE DIPROPIONATE] | 69%
13. Cc1cc(-c2ccc3c(c2)CC[C@H]3N2CC3(CCN(C(=O)Cc4cn5cc(C)sc5n4)CC3)C2)ncn1 | 63%
14. CN1CCN(c2ccc(Nc3c4ccccc4nc4ccccc34)cc2)CC1.Cl.Cl.O | 49%
15. CC(F)(F)CN1CCOc2c(nn(-c3ccccc3Cl)c2-c2ccc(Cl)cc2)C1=O | 66%
16. Cl.Cl.OCCOCCN1CCN(C(c2ccccc2)c2ccc(Cl)cc2)CC1 (stereo not drawn) [HYDROXYZINE HYDROCHLORIDE] | 58%
17. COCCCN1CCC(NC(=O)c2cc(Cl)c(N)c3c2OCC3)CC1 [PRUCALOPRIDE] | 66%
18. COC(c1ccccc1)(c1ccccc1)[C@H](Oc1nc(C)cc(C)n1)C(=O)O | 70%
19. CN1C[C@H](C(=O)N[C@]2(C)O[C@@]3(O)[C@@H]4CCCN4C(=O)[C@H](Cc4ccccc4)N3C2=O)C[C@@H]2c3cccc4[nH]cc(c34)C[C@H]21.CS(=O)(=O)O [DIHYDROERGOTAMINE MESYLATE] | 65%
20. COc1cc(C(=O)N2CC[C@@H](O)[C@@H](N)C2)cc2nc(-c3cc4ccccc4n3CC3CC3)n(C)c12.Cl | 57%
21. CN1CCC(C(=O)c2cccc(NC(=O)c3c(F)cc(F)cc3F)n2)CC1 | 74%
22. COCCn1c(C)c(C)s/c1=N\C(=O)C1C(C)(C)C1(C)C | 59%
23. OCCCNc1cc(-c2ccnc(Nc3cccc(Cl)c3)n2)ccn1 | 44%
24. O=C(O)CCC/C=C\CC1C(O)CC(O)C1/C=C/C(O)COc1cccc(Cl)c1 (stereo not drawn) | 58%
25. CN(C)C(=O)Cn1cc(-c2ccc(-c3nnc4ccccn34)cc2)cn1 | 63%
26. CC(C)C[C@@H]1NC(=O)[C@@H](C(C)C)NC(=O)[C@@H]2CCCN2C(=O)[C@@H](CC(=O)O)NC(=O)[C@@H](Cc2c[nH]c3ccccc23)NC1=O [BQ-123] (cyclo(L[dW][dD]P[dV])) | 65%
27. COc1cc2nc(N3CCN(C(=O)COc4c(OC)cccc4C(C)C)CC3)nc(N)c2cc1OC.Cl.Cl | 47%
28. Cc1c(Cc2ccc3ccccc3n2)c2cc(F)ccc2n1CC(=O)O | 77%
29. Cc1cc(NC(=O)NCCN2CCC(O)(Cc3ccccc3)CC2)c2ccccc2n1 | 69%
30. CCCCCCNC(=O)Nc1ccc(S(=O)(=O)Nc2ccc(CCNC[C@H](O)COc3ccc(O)cc3)cc2)cc1 | 72%
31. CSc1nc(NC2CCCC2)c([N+](=O)[O-])c(NC2CCCC2)n1 | 62%
32. Cn1cc(C(=O)OCC2CCN(CCNS(C)(=O)=O)CC2)c2ccccc21 | 55%
33. CC(C)(C)c1ccc(CSc2cnn(C(C)(C)C)c(=O)c2Cl)cc1 | 68%
